Test: inhibitors of TNFa-induced NFkB p65 translocation, primary screen, imaging, HUVEC, MLSMR starter and 10KST1 sets (AID 438);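 note: compound added about 3h40 before a 20 min TNFalpha stimulation; signal is the nuclear over cytoplasmic p65 intensity ratio per well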
Conditions: HUVEC TNFa-induced p65 nuclear translocation; at 2 µM, active compounds read high, 0% TNFa-plus-vehicle, 100% no-TNFa wells
Please provide measured inhibition for the entries that follow.
Kindly answer with a numeric value in %, unit omitted.

(Q) Identify inhibition associated with the compound Cc1ccc(N2CCN(c3ccc(C)cc3)C(CC(=O)O)C2=O)cc1 (stereo unspecified)
(A) -4.7

(Q) Identify inhibition associated with the compound `Cc1ccc(C(=O)/C=C/Nc2ccccn2)cc1`
(A) -5.9

(Q) Identify inhibition associated with the compound `CCOC(=O)N1CCC(N2C(=O)c3ccc(C(=O)NCc4ccco4)cc3C2=O)CC1`
(A) -6.1

(Q) Identify inhibition associated with the compound `Cc1sc(-n2c(C)cc(/C=N/n3cnnc3)c2C)c(C#N)c1C`
(A) 1.9

(Q) Identify inhibition associated with the compound O=C1CC(c2ccccc2)Cc2nc(N3CCc4ccccc43)ncc21 (stereo unspecified)
(A) 1.2

(Q) Identify inhibition associated with the compound `Cc1nn(CC(N)=O)c(=O)c2ccccc12`
(A) -2.9
